- System: HT29 colon
- Measurement Protocol: NCI-60 one-dose screen, 48 h (100 = growth as untreated, 0 = no growth, -100 = all killed)
- Conditions: 10 µM unless noted
Compounds without any hit were thinned out: in the full panel of roughly 83,000, 20% have a hit.
So basically: growth at 10% or higher? That is met. Lower than 10%? That is not met.

Query :: Identify whether the reported growth of the following molecule is 10% or greater: O=C1CSC(c2ccccc2Cl)N1c1nnc(Cn2cnnc2)o1 (stereo not given)
Result :: met

Query :: Kindly determine if growth recorded for `Cc1cc(N2CCCCC2)nc(N(CCNc2ccnc3cc(Cl)ccc23)Cc2ccccn2)n1` is above or exactly 10%.
Result :: met

Query :: Exam item: decide whether the reported growth for `COc1cc(-c2ccc(-c3ccc(C(=N)N)nc3)s2)cc(OC)c1OC` is at least 10%.
Result :: met

Query :: Kindly determine if growth recorded for `C=C(C=O)[C@@H]1CC=C(C=O)CC1` is above or exactly 10%.
Result :: met

Query :: For this molecule, is measured growth 10% or higher? `CCCCCCCCN(CCCCCCCC)C(=N)c1ccnc2ccccc12`
Result :: not met

Query :: Has `N#Cc1c(NC(=O)c2ccc(Br)cc2)sc2c1CCCC2` a recorded growth greater than or equal to 10%?
Result :: met

Query :: Check this molecule for growth at or above 10%: `COc1ccc(-c2nc3sc4c(c3c(=O)[nH]2)CCCC4)c2ccccc12`
Result :: not met

Query :: Could you tell me if the measured growth of `C[C@@H]1CC[C@@H]2[C@@H]1[C@H](OC(=O)/C=C/c1ccccc1)[C@]1(CCCOCCOCCOCCOC(=O)CCCC[C@@H]3SC[C@@H]4NC(=O)N[C@@H]43)C[C@@H](OC(=O)CO)[C@@]2(C)O1` reaches 10% or more?
Result :: met

Query :: Please tell me: is the molecule `COc1cc(C(=O)/C=C/c2c(-c3ccc(F)cc3)nc3ncccn23)cc(OC)c1OC` at or over 10% in terms of growth?
Result :: met

Query :: Does growth meet or surpass 10% for `Cc1cc(=O)[nH]c(N/N=C/c2cc(Br)ccc2O)n1` ?
Result :: met

---

- System: 786-0 renal
- Measurement Protocol: NCI-60 one-dose screen, 48 h
- Conditions: 10 µM unless noted
The panel holds about 83,000 compounds, 20% with a hit somewhere; the sample as a whole holds those more often. Activity calls are given as the source filed them. How the source made its calls: active means growth percent below 10; inactive means the rest.
Return exactly one item of y (active), n (inactive)

Query :: # fetch the recorded call for O=C(/C=C/C12c3ccccc3C(c3ccccc31)C1C(=O)NC(=O)C12)c1ccccc1 (centres undefined) here
Result :: n

Query :: Recorded call for `CCCCCCCCc1cc[n+](CC(=O)c2ccc(Br)cc2)cc1` ?
Result :: n

Query :: Given `N#Cc1c(N)nc2c(nnn2-c2cccc(C(F)(F)F)c2)c1N` , state the outcome it received in this test.
Result :: n

Query :: What did this assay record as the result for `Clc1ccc(/C=N\N=c2\scc(-c3ccc(Cl)cc3)n2/N=C/c2ccc(Cl)cc2)cc1` ?
Result :: n

Query :: What call does the record list for `CCc1nc2ccccc2[nH]1` ?
Result :: n

Query :: Given `COc1ccc(/C(C)=C(\c2ccc(Cl)cc2)c2ccc(OCCN(C)C)cc2)cc1F` , state the outcome it received in this test.
Result :: n

Query :: Short answer needed: outcome of this test for `COc1ccc(Nc2ncc(Br)c(NCCCNC(=O)C3CCC3)n2)cc1` ?
Result :: n

Query :: What did the test return for `Nc1ccc(S(=O)(=O)Nc2ccsc2-c2nc(-c3ccccc3)no2)cc1` ?
Result :: n

Query :: Short answer needed: outcome of this test for `C=C1C(=O)O[C@H]2[C@H]1CC/C(COC(=O)/C=C\C(=O)NCc1ccc(Cn3c(=O)sn(-c4ccc(OC)cc4)c3=O)cc1)=C\CC[C@@]1(C)O[C@@H]21` ?
Result :: y

Query :: Which result was noted for this compound in the test: `COc1ccc(/C(C)=C(\c2ccc(Cl)cc2)c2ccc(OCCN3CCCCC3)cc2)cc1F`
Result :: y

Query :: What outcome does the record of this test show for `C[C@H]1[C@H]2C3=CC[C@@H]4[C@@]5(C)C/C(=C/c6ccncc6)C(=O)C(C)(C)[C@@H]5CC[C@@]4(C)[C@]3(C)CC[C@@]2(C(=O)N2CCN(C)CC2)CC[C@@H]1C` ?
Result :: n

Query :: Per the assay record, what outcome was assigned to `O=C1c2ccccc2C(=O)c2cc(Cn3cc[n+](Cc4ccc5ccccc5c4)c3)ccc21` ?
Result :: n

Query :: Name the outcome recorded for `C[C@@H]1CC[C@@H]2[C@@H]1[C@H](OC(=O)/C=C/c1ccccc1)[C@]1(CCCOCCOCCOCCOC(=O)CCCC[C@@H]3SC[C@@H]4NC(=O)N[C@@H]43)C[C@@H](OC(=O)CO)[C@@]2(C)O1` in the assay.
Result :: n

Query :: // return assay outcome for `NC(=S)c1csc(CCNC(=O)c2ccccc2)n1`
Result :: n

Query :: Given `CCOc1cccnc1/C=N/NC(N)=S` , state the outcome it received in this test.
Result :: n

Query :: Any idea what this test logged for `COc1ccc(-c2cc(-c3cc(OC)ccc3OC)[nH]c(=O)c2C#N)cc1` ?
Result :: n

Query :: Check the results log: what was the call for `Cn1cc(Nc2nccc(-c3ccc(N4CCCC4)c(C#N)c3)n2)cn1` ?
Result :: n

Query :: Outcome logged for `CCOc1ccc(S(=O)(=O)c2ccc(C)cc2)c2c1no[n+]2[O-]` in this assay:
Result :: n

Query :: // return assay outcome for `C=CC(=O)Nc1cccc(C)c1Nc1cc(-c2cccnc2Cc2c(C)c(OC)cc(OC)c2C)ncn1`
Result :: n

Source of measurements: PubChem BioAssay (NCI)
